system: COLO 205 colon; test: NCI tumour cell line growth inhibition, 48 h
Respond with 1 for TGI values of 30 µM and above, 0 for values below.

Past entries and their recorded results:
- Nc1nc(Cl)c(/C=N\O)c(NCC2(CO)CC(=O)C2)n1: 1
- CC(C)(C)c1ccc(-n2c3nc(=O)n(-c4ccccc4C(F)(F)F)c(=O)c-3cc3ccccc32)cc1: 1
- O=C(N/N=C\c1cc(Cl)ccc1O)c1ccncc1: 1
- CC1(SCC(N)C(=O)O)CC(=O)NC1=O (stereo not given): 1
- COc1ccc(C2C(Cl)C(=O)N2NC(=O)c2ccccc2O)cc1 (stereo not given): 1

Q: Confirm if TGI reported for the compound O=c1cc(N2CCOCC2)oc2c(-c3ccc4c(c3)OCCO4)csc12 is 30 µM or above.
Ans: 0

Q: Confirm if TGI reported for the compound CC(C)(C)c1ccc2c(c1)S(=O)(=O)Nc1cccc(c1)NS(=O)(=O)c1cc(C(C)(C)C)ccc1OCCOCCO2 is 30 µM or above.
Ans: 1

Q: Confirm if TGI reported for the compound Cc1ccc(N=Nc2c(O)c(S(=O)(=O)O)cc3cc(S(=O)(=O)O)ccc23)c(C)c1 is 30 µM or above.
Ans: 1

Q: Confirm if TGI reported for the compound COc1ccc(O)cc1C=O is 30 µM or above.
Ans: 1

Q: Confirm if TGI reported for the compound CCC(=O)Oc1cc(/C=C/C(=O)O[C@H]2C[C@H]3CN4CCc5c([nH]c6cc(OC)ccc56)[C@@H]4C[C@@H]3[C@@H](C(=O)OC)[C@@H]2OC)ccc1OC is 30 µM or above.
Ans: 0

Q: Confirm if TGI reported for the compound C[Si](C)(C)CC(N)=O is 30 µM or above.
Ans: 1

====

tested on: NCI-H226 lung; test: NCI tumour cell line growth inhibition, 48 h
TGI: recorded values

Take a look at these entries with their results.
- C=C1CC[C@@H]2C(C)(C)C(O)CCC2(C)C1COc1ccc2ccc(=O)oc2c1 (stereo not given in full): 33.3 µM
- Cn1cc(-c2ccc(-c3cn(C)c4ncccc34)[nH]2)c2cccnc21: > 100 µM
- CCOC(=O)c1cnc2oc(-c3ccc(OC)cc3)nn2c1=O: > 100 µM

For this compound ( CC(Cc1ccc(O)cc1)NCC(O)c1ccc(O)c(O)c1 (stereo not given) ), measured TGI is > 100 µM

For this compound ( C=C[C@H]1CN2CCc3c([nH]c4cc(O)ccc34)[C@@H]2C[C@@H]1C[C@H]1c2[nH]c3ccccc3c2CCN1C ), measured TGI is 36.3 µM

For this compound ( N#CC1Sc2ccccc2-n2cccc21 (stereo not given) ), measured TGI is 87.6 µM

====

test system: EKVX NSCLC; assay: NCI tumour cell line growth inhibition, 48 h
assay_metric: TGI

- CC(=O)OCCOCn1cc(C=O)c2ccccc21: > 100 µM

For this compound ( CC(Cc1ccc(O)cc1)NCC(O)c1ccc(O)c(O)c1 (configuration not stated) ), measured TGI is > 100 µM

For this compound ( N=C(c1ccc(-c2cn3cc(C(=N)N4CCCC4)ccc3n2)cc1)N1CCCC1 ), measured TGI is > 100 µM

For this compound ( O=[N+]([O-])c1ccc(-c2nc(/C=N/N3CCCCC3)cs2)o1 ), measured TGI is > 100 µM

For this compound ( O=C1NC(=O)C2C1c1[nH]c3ccccc3c1C1CCCC12 (configuration not stated) ), measured TGI is > 100 µM

For this compound ( O=C1C=Cc2c(-c3ccccc3)oc3cccc1c23 ), measured TGI is 15.5 µM

For this compound ( O=c1c2c3c(sc2n2c(CCl)nnc2n1Cc1ccccc1)CCCC3 ), measured TGI is 27.9 µM

====

system: UO-31 renal; assay: NCI tumour cell line growth inhibition, 48 h
assay_metric: GI50

Take a look at these entries with their results.
* COc1ccc(NC(=O)c2sc3nc(C)c(C(=O)/C=C/c4ccccc4)cc3c2N)cc1 | 0.748 µM
* Cc1c(-c2ccc(O)c(O)c2)oc(=O)c2c(O)cc(O)cc12 | 6.9 µM

For this compound ( O=c1c2sc3ccccc3c2nnn1-c1ccc(F)c(Cl)c1 ), measured GI50 is 2.13 µM

For this compound ( O=[N+]([O-])[O][Sn]([O][Sn]([O][N+](=O)[O-])([c]1ccccc1)[c]1ccccc1)([c]1ccccc1)[c]1ccccc1 ), measured GI50 is > 100 µM

For this compound ( Cn1cc(-c2ccc(-c3cn(C)c4ncccc34)[nH]2)c2cccnc21 ), measured GI50 is 1.57 µM

For this compound ( Cn1ccnc1C(=O)/C=C/c1ccc(C(=O)Nc2ccccc2F)cc1 ), measured GI50 is 1.38 µM

For this compound ( COc1cc(C(=O)/C=C/c2cc(-c3cc(OC)c(OC)c(OC)c3)n[nH]2)cc(OC)c1OC ), measured GI50 is 1.19 µM

====

system: U251 CNS
Could you please pick one outcome from this set? active, inactive

Q: Dear all, I need the recorded test outcome for Nc1c(C(=O)Nc2ccccc2)sc2nc3c(cc12)C(O)CCC3 (centres undefined) , thank you.
Ans: active

Q: Dear all, I need the recorded test outcome for Cc1ccc2nc3ccccc3c(NCc3ccccc3)c2c1 , thank you.
Ans: inactive

====

system: K-562 leukemia; assay: NCI tumour cell line growth inhibition, 48 h
TGI: recorded values

For this compound ( c1ccc(C2=NOC3COc4ccccc4OCC23)cc1 (stereo unspecified) ), measured TGI is > 100 µM

For this compound ( C=C1CC(c2ccc(O)c(OC)c2)Oc2c(OC)cccc21 (stereo unspecified) ), measured TGI is 64.8 µM

For this compound ( CC(C)(C)OC(=O)CCC1NC(=O)[C@@H]2Cc3c([nH]c4ccccc34)C(C3CCCCC3)N2C1=O (stereo partly specified) ), measured TGI is > 100 µM

For this compound ( CO[C@]12C#CC=CC#C[C@@H](O)[C@]3(CCC1)O[C@@]23c1cccc(O)c1 ), measured TGI is > 100 µM

For this compound ( CCOC(=O)c1cnc2oc(-c3ccc(OC)cc3)nn2c1=O ), measured TGI is > 100 µM

For this compound ( Cc1c(C(=N)N)oc2ccccc12 ), measured TGI is > 100 µM

For this compound ( CN1CCN(Cn2nc(COc3ccc(Cl)cc3)n(/N=C/c3ccc(-c4ccc(Cl)cc4Cl)o3)c2=S)CC1 ), measured TGI is > 100 µM

For this compound ( O=C(/C=C/c1ccccc1O)C(c1ccccc1)c1ccccc1 ), measured TGI is > 100 µM

For this compound ( O=C1NC(=O)C2C1c1[nH]c3ccccc3c1C1CCCC12 (stereo unspecified) ), measured TGI is > 100 µM

For this compound ( O=C(Nc1ccc(Cl)cc1)Oc1ccc(C(=S)Nc2ccc(Br)cc2)cc1 ), measured TGI is 57.2 µM

For this compound ( COc1cc(C(=O)/C=C/c2cc(-c3cc(OC)c(OC)c(OC)c3)n[nH]2)cc(OC)c1OC ), measured TGI is > 100 µM

For this compound ( C=C1CC[C@@H]2C(C)(C)C(O)CCC2(C)C1COc1ccc2ccc(=O)oc2c1 (stereo partly specified) ), measured TGI is 44.1 µM

For this compound ( CN1N=C(c2ccncc2)OC1c1ccc(Cl)cc1Cl (stereo unspecified) ), measured TGI is > 100 µM

For this compound ( COC(=O)N1c2ccc3c(nc(Cc4ccccc4)n3[C@H]3CCC[C@H](C(=O)O)C3)c2CC[C@@H]1C ), measured TGI is > 100 µM

For this compound ( COc1ccc2oc(=O)cc(C3c4ccc([nH]4)C(c4cc(=O)oc5ccc(OC)cc45)c4ccc([nH]4)C(c4cc(=O)oc5ccc(OC)cc45)c4ccc([nH]4)C(c4cc(=O)oc5ccc(OC)cc45)c4ccc3[nH]4)c2c1 (stereo unspecified) ), measured TGI is 2.03 µM

====

TGI: recorded values
test system: DMS 273 small cell lung; assay: NCI tumour cell line growth inhibition, 48 h

Take a look at these entries with their results.
* CCOC(=O)c1cnc2oc(-c3ccc(OC)cc3)nn2c1=O | > 100 µM
* NCCSCC(N)C(=O)O (stereo unspecified) | > 497 µM
* CN(C)c1ccc(Cc2cc(C(C)(C)C)cc(C(C)(C)C)c2O)cc1 | 34 µM
* CCN(CC)CCCNc1ccc2ncn3c4ccc(O)cc4c(=O)c1c23 | 14.8 µM
* CCOC(=O)[C@@]12C(C)=CC(=O)O[C@]1(C)C[C@H]2C#N | > 100 µM

For this molecule ( O=S(=O)(N/N=C/c1c(Cl)cccc1Cl)c1ccccc1 ), measured TGI is > 100 µM

For this molecule ( Cn1cccc(C(=O)c2ccccc2)c1=O ), measured TGI is > 100 µM

For this molecule ( CC#C[C@@]1(O)CCCCC1O (stereo partly specified) ), measured TGI is > 100 µM

For this molecule ( O=C(/C=C/c1ccccc1O)C(c1ccccc1)c1ccccc1 ), measured TGI is > 100 µM

For this molecule ( Cc1cc(Br)ccc1NC1=CC(=O)C(=O)c2ccccc21 ), measured TGI is > 100 µM

For this molecule ( O=C1CCC(=O)N1CNc1cccc(NCN2C(=O)CCC2=O)c1 ), measured TGI is > 100 µM

For this molecule ( CC(=O)N(C)C=C1C(=O)N(C)C(=O)N(C)C1=O ), measured TGI is > 100 µM

For this molecule ( CC(O)C(C(=O)O)N(CC1(O)OCC(O)C(O)C1O)N=O (stereo unspecified) ), measured TGI is > 100 µM

For this molecule ( CCN(CCCl)CCCCNc1c2ccccc2nc2ccc(OC)cc12 ), measured TGI is 1.44 µM

For this molecule ( O=C1c2ccccc2C2(O)Nc3c(ccc4ccccc34)C12O (stereo unspecified) ), measured TGI is > 100 µM

For this molecule ( CC1(C)C(O)OC(O)C1(C)C (stereo unspecified) ), measured TGI is > 100 µM
